Overview of recorded z-score for various compounds
- METHOD DESCRIPTION: growth of efflux-deficient E. coli DRC39 – strain DRC39, OD650, 48 h, E. coli filamentation inducers, primary screen (AID 1179);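 also: screen aims at cell division blockers that make cells filament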
- MEASUREMENT CONDITIONS: E. coli DRC39 delta-acrAB growth, higher = more signal, called active from +8 up or from −8 down

{"COMPOUND": "OCCCc1cc[n+](Cc2cccc(OC(F)(F)F)c2)cc1", "z-score": 0.159}
{"COMPOUND": "O=C1OCC=C[C@H]2OC34C=CCN(CCN5CCOCC5)C(=O)[C@H]3N(CCCCCCO)C(=O)[C@@H]4[C@@H]12 (stereo partly specified)", "z-score": 0.0937}
{"COMPOUND": "COCCCNC(=O)[C@@]1(C)c2ccccc2C(=O)N(Cc2ccccc2)[C@H]1c1ccc(CO)cc1", "z-score": -0.275}
{"COMPOUND": "[N-]=[N+]=NCc1ccccc1[C@@H]1OC(c2ccc(OCCCO)cc2)=N[C@]1(Cc1ccccc1)C(=O)O", "z-score": -0.108}
{"COMPOUND": "COc1ccc([Si](C)(C)[C@@H]2[C@@H](CCO)O[C@]3(C(=O)N(Cc4cccc(N(C=O)c5ccccc5)c4)c4ccccc43)[C@H]2C)cc1", "z-score": -1.62}
{"COMPOUND": "Cc1cccc(/C=C/C=O)c1", "z-score": 0.35}
{"COMPOUND": "CCOC(=O)C[C@H]1[C@H](OC(=O)c2ccc(C(=O)c3ccccc3)cc2)[C@@H](NC(=O)c2ccc3ccccc3n2)c2cc(OCCCO)ccc2N1C(=O)c1ccc2ccccc2n1", "z-score": 0.388}
{"COMPOUND": "COCCOC(=O)N1C(=O)[C@@]2(c3ccccc31)[C@H](C(=O)N1CCCCCCC1)[C@H]1C(=O)O[C@H](c3ccccc3)[C@H](c3ccccc3)N1[C@@H]2c1ccccc1OCCO", "z-score": 0.0795}
{"COMPOUND": "COCC1=C([C@H](O)CCc2ccccc2)[C@H](CO)[C@@H]2C(=O)N(Cc3ccccc3)C(=O)[C@@H]2C1", "z-score": 0.738}
{"COMPOUND": "C=C(COC)/C(=C/C[C@H](OC(C)=O)c1ccccc1OCCO)c1cnc2ccccc2c1", "z-score": -0.334}
{"COMPOUND": "Cc1ccc(F)cc1S(=O)(=O)N[C@@H]1CCN(Cc2ccc(C(F)(F)F)cc2)C1", "z-score": -1.2}
{"COMPOUND": "CCN(CC)c1ccc(N2CC=CC34O[C@@H]5C=CCOC(=O)[C@@H]5[C@H]3C(=O)N(CCCCCO)[C@@H]4C2=O)cc1 (stereo partly specified)", "z-score": 0.349}
{"COMPOUND": "CC(c1ccccc1)C(O)C1C=CC2C(=O)N(Cc3ccccc3)C(=O)C2N1n1cnnc1 (stereo unspecified)", "z-score": -2.39}
{"COMPOUND": "COC(=O)[C@@]1(Cc2ccc(OC)cc2)[C@H]2c3cc(C(=O)N4CCCC4)n(CCc4ccccn4)c3C[C@H]2CN1C(=O)c1ccccc1", "z-score": -0.912}
{"COMPOUND": "[N-]=[N+]=NCc1ccccc1[C@H]1OC(c2ccc(OCCCO)cc2)=N[C@@]1(Cc1ccccc1)C(=O)NCC(O)CO (stereo partly specified)", "z-score": -0.279}
{"COMPOUND": "CCCCN1CC=CC23O[C@@H]4/C=C\\CCCOC(=O)C4[C@H]2C(=O)N(C(C)CO)[C@@H]3C1=O (stereo partly specified)", "z-score": 0.738}
